Conditions: human;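 note: count of indexed literature references reporting vascular liver injury in humans, e.g. peliosis hepatitis, hepatic veno-occlusive disease or Budd-Chiari syndrome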
Assignment: determine reported Hepatotoxicity (association with vascular disease) for the given molecules.
I only need the number, thanks.

Data request: Can you share its Hepatotoxicity (association with vascular disease)? I mean this molecule: CC(C)[C@H](N)C(=O)OCCOCn1cnc2c(=O)[nH]c(N)nc21
Data returned: 0

Data request: Can you share its Hepatotoxicity (association with vascular disease)? I mean this molecule: O=C(O)CCC(=O)c1ccc(-c2ccccc2)cc1
Data returned: 0

Data request: Can you share its Hepatotoxicity (association with vascular disease)? I mean this molecule: FC(F)(F)C(Cl)Br (stereo not given)
Data returned: 0

Data request: Can you share its Hepatotoxicity (association with vascular disease)? I mean this molecule: CN(C)CCCN1c2ccccc2C(C)(C)c2ccccc21
Data returned: 0

Data request: Can you share its Hepatotoxicity (association with vascular disease)? I mean this molecule: Cc1c(F)c(N2CCNC(C)C2)cc2c1c(=O)c(C(=O)O)cn2C1CC1 (stereo not given)
Data returned: 0

Data request: Can you share its Hepatotoxicity (association with vascular disease)? I mean this molecule: C=CC[C@@H]1/C=C(\C)C[C@H](C)C[C@H](OC)[C@H]2O[C@@](O)(C(=O)C(=O)N3CCCC[C@H]3C(=O)O[C@H](/C(C)=C/[C@@H]3CC[C@@H](O)[C@H](OC)C3)[C@H](C)[C@@H](O)CC1=O)[C@H](C)C[C@@H]2OC [TACROLIMUS ANHYDROUS]
Data returned: 2

Data request: Can you share its Hepatotoxicity (association with vascular disease)? I mean this molecule: COc1ccc(NS(=O)(=O)c2ccc(N)cc2)nn1
Data returned: 0

Data request: Can you share its Hepatotoxicity (association with vascular disease)? I mean this molecule: O=C(O)c1cc(=O)c2c(OCC(O)COc3cccc4oc(C(=O)O)cc(=O)c34)cccc2o1
Data returned: 0

Data request: Can you share its Hepatotoxicity (association with vascular disease)? I mean this molecule: C[C@H]1C[C@H]2[C@@H]3CCC4=CC(=O)C=C[C@]4(C)[C@@]3(F)[C@@H](O)C[C@]2(C)[C@@]1(O)C(=O)CO
Data returned: 0

Data request: Can you share its Hepatotoxicity (association with vascular disease)? I mean this molecule: Cc1c(N(C)C)c(=O)n(-c2ccccc2)n1C
Data returned: 0

Data request: Can you share its Hepatotoxicity (association with vascular disease)? I mean this molecule: CC(C)(N)C(=O)N[C@H](COCc1ccccc1)C(=O)N1CCC2(CC1)CN(S(C)(=O)=O)c1ccccc12
Data returned: 0

Data request: Can you share its Hepatotoxicity (association with vascular disease)? I mean this molecule: C[C@]12CC[C@H]3[C@@H](CCC4=CC(=O)CC[C@@]43C)[C@@H]1CC[C@@H]2O
Data returned: 6

Data request: Can you share its Hepatotoxicity (association with vascular disease)? I mean this molecule: CO[C@H]1/C=C/O[C@@]2(C)Oc3c(C)c(O)c4c(c3C2=O)C2=NC3(CCN(CC(C)C)CC3)NC2=C(NC(=O)/C(C)=C\C=C\[C@H](C)[C@H](O)[C@@H](C)[C@@H](O)[C@@H](C)[C@H](OC(C)=O)[C@@H]1C)C4=O
Data returned: 0

Data request: Can you share its Hepatotoxicity (association with vascular disease)? I mean this molecule: COc1ccc2c(c1)c(CC(=O)O)c(C)n2C(=O)c1ccc(Cl)cc1
Data returned: 0

Data request: Can you share its Hepatotoxicity (association with vascular disease)? I mean this molecule: CN1CCOC(c2ccccc2)c2ccccc2C1 (stereo not given)
Data returned: 0
